Reported CC50 values for the following compounds.
experiment: Cytotoxicity against human THP1 cells infected with intracellular amastigote stage of Leishmania donovani MHOM/ET/67/HU3; format: cell-based, THP-1

{"CHEMICAL STRUCTURE": "CC(C)c1ccc(CN2C3=NCCN3c3ccccc32)cc1", "CC50": "> 50 µM"}
{"CHEMICAL STRUCTURE": "Fc1ccc(F)c(-c2ccc(CN3C4=NCCN4c4ccccc43)cc2)c1", "CC50": "> 50 µM"}
{"CHEMICAL STRUCTURE": "CC(C)(C)c1ccc(OCCN2C3=NCCN3c3ccccc32)cc1", "CC50": "33.1 µM"}
{"CHEMICAL STRUCTURE": "c1ccc(Oc2ccc(CN3C4=NCCN4c4ccccc43)cc2)cc1", "CC50": "48 µM"}
{"CHEMICAL STRUCTURE": "CC(C)(C)c1cccc(CN2C3=NCCN3c3ccccc32)c1", "CC50": "> 50 µM"}
{"CHEMICAL STRUCTURE": "c1ccc2c(c1)N1CCN=C1N2Cc1ccc(C2CCCCC2)cc1", "CC50": "22.8 µM"}
{"CHEMICAL STRUCTURE": "c1ccc(CN2C3=NCCN3c3ccccc32)cc1", "CC50": "> 50 µM"}
{"CHEMICAL STRUCTURE": "c1ccc(CN2C3=NCCN3c3ccccc32)nc1", "CC50": "> 50 µM"}
{"CHEMICAL STRUCTURE": "CCc1ccc(CN2C3=NCCN3c3ccccc32)cc1", "CC50": "> 50 µM"}
{"CHEMICAL STRUCTURE": "CC(C)(C)c1ccc(C(=O)CN2C3=NCCN3c3ccccc32)cc1", "CC50": "> 50 µM"}
{"CHEMICAL STRUCTURE": "Fc1ccc(-c2ccc(CN3C4=NCCN4c4ccccc43)cc2)cc1", "CC50": "35 µM"}
{"CHEMICAL STRUCTURE": "CC(C)(C)c1ccc(CN2C3=NCCN3c3cc(Cl)ccc32)cc1", "CC50": "12.5 µM"}
{"CHEMICAL STRUCTURE": "CC(C)(C)c1ccc(CCN2C3=NCCN3c3ccccc32)cc1", "CC50": "> 50 µM"}
{"CHEMICAL STRUCTURE": "CCCCCCCCCCCCCCCCOP(=O)([O-])OCC[N+](C)(C)C", "CC50": "18.9 µM"}
{"CHEMICAL STRUCTURE": "N#Cc1ccc(CN2C3=NCCN3c3ccccc32)cc1", "CC50": "> 50 µM"}
{"CHEMICAL STRUCTURE": "CC(C)(C)c1ccc(CN2C3=NCCN3c3cc(F)ccc32)cc1", "CC50": "> 50 µM"}

* * *

Reported selectivity ratio values for the following compounds.
experiment: Selectivity index, ratio of IC50 for human THP1 cells to IC50 for intracellular amastigote stage of Leishmania donovani MHOM/ET/67/HU3; type: toxicity, cell-based, THP-1; settings: read-out: Selectivity Index
MEASUREMENT LABEL: selectivity ratio

{"CHEMICAL STRUCTURE": "c1ccc(Oc2ccc(CN3C4=NCCN4c4ccccc43)cc2)cc1", "REL": "=", "VALUE": 3.82}
{"CHEMICAL STRUCTURE": "Fc1ccc(F)c(-c2ccc(CN3C4=NCCN4c4ccccc43)cc2)c1", "REL": ">", "VALUE": 1.54}
{"CHEMICAL STRUCTURE": "CC(C)(C)c1ccc(CN2C3=NCCN3c3cc(F)ccc32)cc1", "REL": ">", "VALUE": 3.57}
{"CHEMICAL STRUCTURE": "Cc1ccc2c(c1)N1CCN=C1N2Cc1ccc(C(C)(C)C)cc1", "REL": "=", "VALUE": 2.55}
{"CHEMICAL STRUCTURE": "CCc1ccc(CN2C3=NCCN3c3ccccc32)cc1", "REL": ">", "VALUE": 1.19}
{"CHEMICAL STRUCTURE": "c1ccc2c(c1)N1CCN=C1N2Cc1ccc(C2CCCCC2)cc1", "REL": "=", "VALUE": 4.19}

* * *

assay: Selectivity index, ratio of IC50 for human U2OS cells to IC50 for intracellular Trypanosoma cruzi; format: toxicity, cell-based; conditions: U2OS cells versus intracellular Trypanosoma cruzi, read-out: Selectivity Index
Reported selectivity ratio values for the following compounds.
MEASUREMENT LABEL: selectivity ratio

{"CHEMICAL STRUCTURE": "CC(C)(C)c1ccc(C(=O)CN2C3=NCCN3c3ccccc32)cc1", "REL": ">", "VALUE": 1.39}
{"CHEMICAL STRUCTURE": "FC(F)(F)c1ccc(CN2C3=NCCN3c3ccccc32)cc1", "REL": ">", "VALUE": 3.75}
{"CHEMICAL STRUCTURE": "Clc1ccc(-c2ccc(CN3C4=NCCN4c4ccccc43)cc2)cc1", "REL": "=", "VALUE": 1.7}
{"CHEMICAL STRUCTURE": "CC(C)(C)c1ccc(CCN2C3=NCCN3c3ccccc32)cc1", "REL": "=", "VALUE": 1.65}
